The measured values listed here are drawn from patent US12421210B2.

Molecular target: human NAMPT enzyme (His-hNAMPT) (Homo sapiens (Human), UniProt P43490)
Sequence (P43490 whole entry): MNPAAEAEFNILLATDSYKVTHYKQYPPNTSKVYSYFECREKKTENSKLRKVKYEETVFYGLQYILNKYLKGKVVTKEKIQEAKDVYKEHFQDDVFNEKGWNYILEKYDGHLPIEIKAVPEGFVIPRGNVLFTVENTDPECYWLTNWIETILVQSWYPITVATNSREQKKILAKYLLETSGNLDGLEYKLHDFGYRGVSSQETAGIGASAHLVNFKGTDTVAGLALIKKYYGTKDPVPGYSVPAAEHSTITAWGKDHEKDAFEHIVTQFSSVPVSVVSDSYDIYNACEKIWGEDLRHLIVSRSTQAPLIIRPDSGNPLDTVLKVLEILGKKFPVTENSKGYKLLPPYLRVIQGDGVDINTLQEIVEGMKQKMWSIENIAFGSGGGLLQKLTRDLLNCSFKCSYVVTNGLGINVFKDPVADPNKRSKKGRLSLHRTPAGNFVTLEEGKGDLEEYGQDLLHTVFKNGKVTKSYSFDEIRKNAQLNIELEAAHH
Test: NAMPT enzymatic inhibition assay (fluorescence, NADH product)
Type: biochemical
Conditions: [HDB]; read-out: NAMPT IC50 (μM) [HDB]
Description: The compounds were then diluted 20 fold in an intermediate dilution to 5% DMSO and water. […] Fluorescence intensity was measured at an excitation of 340 nm and an emission of 460 nm using a Tecan Infinite M1000 microplate reader. The fluorescence values indicated increase of NADH product. Enzyme activity assay was performed in duplicate at each concentration. The fluorescence data was analyzed and compared. […]
Recorded IC50 values for a group of molecules are listed next.

The examples below pair each entry with its known result.
{"molecule": "Cc1nc(C)c(C(=O)N2C[C@@H]3[C@@H](CCNC(=O)c4cc5ccncc5s4)[C@@H]3C2)o1", "study-system": "human NAMPT enzyme (His-hNAMPT) (Homo sapiens (Human), UniProt P43490)", "experimental-endpoint": "IC50", "result": "0.01 to 0.49 µM"}
{"molecule": "Cc1cc(N2C[C@@H]3[C@@H](CCNC(=O)/C=C/c4cccnc4)[C@@H]3C2)cc(C)n1", "study-system": "human NAMPT enzyme (His-hNAMPT) (Homo sapiens (Human), UniProt P43490)", "experimental-endpoint": "IC50", "result": "0.01 to 0.49 µM"}

Qu. Recorded IC50 for O=C(CCc1ccccn1)NCC[C@@H]1[C@H]2CN(c3nc(Cl)ncc3F)C[C@@H]12 , please?
Ans. 0.01 to 0.49 µM

---

biological target: human NAMPT enzyme (His-hNAMPT) (Homo sapiens (Human)); assay: NAMPT enzymatic inhibition assay (fluorescence, NADH product); type: biochemical; details: [HDB]; read-out: NAMPT IC50 (μM) [HDB]
Recorded IC50 values for a group of molecules are listed next.

Qu. Recorded IC50 for O=C(NCC[C@@H]1[C@H]2CN(c3nc(Cl)ncc3F)C[C@@H]12)c1cc2c(nc3sccn32)s1 , please?
Ans. 0.01 to 0.49 µM

---

biological target: human NAMPT enzyme (His-hNAMPT) (Homo sapiens (Human)); experiment: NAMPT enzymatic inhibition assay (fluorescence, NADH product); format: biochemical; details: [HDB]; read-out: NAMPT IC50 (μM) [HDB]
experimental-endpoint: IC50

{"molecule": "O=C(/C=C/c1cccnc1)NCC[C@@H]1[C@H]2CN(c3nc(C(F)(F)F)cs3)C[C@@H]12", "study-system": "human NAMPT enzyme (His-hNAMPT) (Homo sapiens (Human))", "IC50": "0.01 to 0.49 µM"}
{"molecule": "Nc1ccc(/C=C/C(=O)NCC[C@@H]2[C@H]3CN(C(=O)c4ccc(C(=O)O)cc4)C[C@@H]23)cn1", "study-system": "human NAMPT enzyme (His-hNAMPT) (Homo sapiens (Human))", "IC50": "0.5 to 0.99 µM"}
{"molecule": "CC(C)(C)OC(=O)N1C[C@@H]2[C@@H](CCNC(=O)c3cc4cc(N)ncc4s3)[C@@H]2C1", "study-system": "human NAMPT enzyme (His-hNAMPT) (Homo sapiens (Human))", "IC50": "0.01 to 0.49 µM"}
{"molecule": "O=C(/C=C/c1cccnc1)NCC[C@@H]1[C@H]2CN(c3ncc(F)c(O)n3)C[C@@H]12", "study-system": "human NAMPT enzyme (His-hNAMPT) (Homo sapiens (Human))", "IC50": "0.01 to 0.49 µM"}
{"molecule": "O=C(/C=C/c1cccnc1)NCC[C@@H]1[C@H]2CN(c3ccc(F)cc3)C[C@@H]12", "study-system": "human NAMPT enzyme (His-hNAMPT) (Homo sapiens (Human))", "IC50": "0.01 to 0.49 µM"}
{"molecule": "O=C(NCC[C@@H]1[C@H]2CN(c3nc(Cl)ncc3F)C[C@@H]12)N1Cc2ccncc2C1", "study-system": "human NAMPT enzyme (His-hNAMPT) (Homo sapiens (Human))", "IC50": "0.01 to 0.49 µM"}
{"molecule": "COc1ncc(F)c(N2C[C@@H]3[C@@H](CCNC(=O)/C=C/c4cccnc4)[C@@H]3C2)n1", "study-system": "human NAMPT enzyme (His-hNAMPT) (Homo sapiens (Human))", "IC50": "< 0.01 µM"}
{"molecule": "O=C(/C=C/c1cccnc1)NCC[C@H]1[C@@H]2CN(c3ccccc3)C(=O)[C@H]12 (racemic) [Example 256 racemic]", "study-system": "human NAMPT enzyme (His-hNAMPT) (Homo sapiens (Human))", "IC50": "0.01 to 0.49 µM"}

Qu. Recorded IC50 for CC(c1ncccn1)N1C[C@@H]2[C@@H](CCNC(=O)/C=C/c3cccnc3)[C@@H]2C1 (some centres unmarked) , please?
Ans. 0.01 to 0.49 µM

Qu. Recorded IC50 for Nc1ccc(/C=C/C(=O)NCC[C@@H]2[C@H]3CN(c4ccc(F)cc4)C[C@@H]23)cn1 , please?
Ans. 0.01 to 0.49 µM

Qu. Recorded IC50 for O=C(/C=C/c1cccnc1)NCC[C@@H]1[C@H]2CN(c3ccc4cnccc4c3)C[C@@H]12 , please?
Ans. < 0.01 µM

Qu. Recorded IC50 for O=C(/C=C/c1cccnc1)NCC[C@@H]1[C@H]2CN(c3ccc(C(F)(F)F)cc3)C[C@@H]12 , please?
Ans. 0.01 to 0.49 µM

Qu. Recorded IC50 for CS(=O)(=O)Nc1cccc(N2C[C@@H]3[C@@H](CCNC(=O)/C=C/c4cccnc4)[C@@H]3C2)c1 , please?
Ans. 0.01 to 0.49 µM

Qu. Recorded IC50 for O=C(/C=C/c1cccnc1)NCC[C@@H]1[C@H]2CN(c3nc(-c4ccccc4)ncc3F)C[C@@H]12 , please?
Ans. < 0.01 µM

Qu. Recorded IC50 for O=C(/C=C/c1cccnc1)NCC[C@@H]1[C@H]2CN(c3cccc4[nH]ncc34)C[C@@H]12 , please?
Ans. 0.01 to 0.49 µM

Qu. Recorded IC50 for O=C(/C=C/c1cccnc1)NCC[C@@H]1[C@H]2CN(Cc3ccccc3Cl)C[C@@H]12 , please?
Ans. 0.01 to 0.49 µM

Qu. Recorded IC50 for O=C(/C=C/c1cccnc1)NCC[C@@H]1[C@H]2CN(c3nccc(C(F)(F)F)n3)C[C@@H]12 , please?
Ans. < 0.01 µM

Qu. Recorded IC50 for CNc1ncc(F)c(N2C[C@@H]3[C@@H](CCNC(=O)/C=C/c4cccnc4)[C@@H]3C2)n1 , please?
Ans. < 0.01 µM

Qu. Recorded IC50 for Nc1ccc(/C=C/C(=O)NCC[C@@]2(F)[C@@H]3CN(c4ncccn4)C[C@@H]32)cn1 , please?
Ans. 0.01 to 0.49 µM

Qu. Recorded IC50 for O=C(/C=C/c1cccnc1)NCC[C@@H]1[C@H]2CN(c3ncc(C(F)(F)F)cn3)C[C@@H]12 , please?
Ans. 0.01 to 0.49 µM
